Tested on: ANKA strain of P. berghei
Experiment: single dose STI in vivo screen in infected mice
Set-up: species or system Plasmodium berghei
Conditions: single 10 mg/kg po in 3% ethanol and 7% Tween 80; untreated control 5.6 ± 0.3
In this section, each of the compounds is paired with its reported Survival (days) po.
Please reply with the bare figure in days and do not write the unit itself.

1) BrC[C@H]1CC[C@]2(CC1)OOC1(O2)C2CC3CC(C2)CC1C3 (some centres unmarked)	8.0

In: Item C1COC2(CCC3(CC2)OOC2(O3)C3CC4CC(C3)CC2C4)O1 (centres unmarked) has what recorded Survival (days) po?
Out: 8.9

In: Please do the same for O=C(NC[C@H]1CC[C@]2(CC1)OOC1(O2)C2CC3CC(C2)CC1C3)c1ccccc1C(=O)NC[C@H]1CC[C@]2(CC1)OOC1(O2)C2CC3CC(C2)CC1C3 (some centres unmarked) as well.
Out: 5.3

In: // query: O=C(OC[C@H]1CC[C@]2(CC1)OOC1(O2)C2CC3CC(C2)CC1C3)N1CCN(c2ccccc2)CC1 (some centres unmarked)
Out: 7.3

In: Further, for NC(=O)C[C@H]1CC[C@]2(CC1)OOC1(O2)C2CC3CC(C2)CC1C3 (some centres unmarked) ?
Out: 7.3

In: Another compound to look at: CCOC(=O)c1cccc([C@H]2CC[C@]3(CC2)OOC2(O3)C3CC4CC(C3)CC2C4)c1 (some centres unmarked)
Out: 6.3

In: Okay, and NC[C@H]1CC[C@@]2(CC1)OOC1(O2)C2CC3CC(C2)CC1C3 (some centres unmarked) ?
Out: 10.7

In: Quick one: C1CCC2(CC1)OOC1(CCC3(CC1)OOC1(CCCCC1)O3)O2 (centres unmarked)
Out: 5.0

In: And then CC(C)(C)COC(=O)C1CCC2(CC1)OOC1(O2)C2CC3CC(C2)CC1C3 (centres unmarked) , what is it?
Out: 7.3

In: Try the compound COC(=O)c1ncnn1C[C@H]1CC[C@]2(CC1)OOC1(O2)C2CC3CC(C2)CC1C3 (some centres unmarked)
Out: 7.0

In: Note, next up: CC(C)(C)ON=C1CCC2(CC1)OOC1(O2)C2CC3CC(C2)CC1C3 (centres unmarked)
Out: 7.3

In: Try O=C(c1ccccc1)N1CCC2(CC1)OOC1(O2)C2CC3CC(C2)CC1C3 (centres unmarked) next.
Out: 7.0

In: Would you kindly repeat that for O=C1c2ccccc2C(=O)N1CC1(c2ccccc2)CCC2(CC1)OOC1(O2)C2CC3CC(C2)CC1C3 (centres unmarked) ?
Out: 6.7

In: Also need CN(C)C[C@H]1CC[C@]2(CC1)OOC1(O2)C2CC3CC(C2)CC1C3 (some centres unmarked) , thanks.
Out: 8.0

In: Continue with O=C(OCCn1ccnc1)C1CCC2(CC1)OOC1(O2)C2CC3CC(C2)CC1C3 (centres unmarked)
Out: 8.0

In: Item: CC1(C)COC2(CCC3(CC2)OOC2(O3)C3CC4CC(C3)CC2C4)OC1 (centres unmarked)
Out: 11.4

In: How about this compound: CCS(=O)(=O)N1CCC2(CC1)OOC1(O2)C2CC3CC(C2)CC1C3 (centres unmarked)
Out: 7.0

In: Continue with C1C2CC3CC1CC(C2)C31OOC2(CCC3(CC2)OOC2(O3)C3CC4CC(C3)CC2C4)O1 (centres unmarked)
Out: 7.7
